target_under_test: T1, human RXFP1 (human, UniProt Q9HBX9 1-757)
T1 sequence (looked up): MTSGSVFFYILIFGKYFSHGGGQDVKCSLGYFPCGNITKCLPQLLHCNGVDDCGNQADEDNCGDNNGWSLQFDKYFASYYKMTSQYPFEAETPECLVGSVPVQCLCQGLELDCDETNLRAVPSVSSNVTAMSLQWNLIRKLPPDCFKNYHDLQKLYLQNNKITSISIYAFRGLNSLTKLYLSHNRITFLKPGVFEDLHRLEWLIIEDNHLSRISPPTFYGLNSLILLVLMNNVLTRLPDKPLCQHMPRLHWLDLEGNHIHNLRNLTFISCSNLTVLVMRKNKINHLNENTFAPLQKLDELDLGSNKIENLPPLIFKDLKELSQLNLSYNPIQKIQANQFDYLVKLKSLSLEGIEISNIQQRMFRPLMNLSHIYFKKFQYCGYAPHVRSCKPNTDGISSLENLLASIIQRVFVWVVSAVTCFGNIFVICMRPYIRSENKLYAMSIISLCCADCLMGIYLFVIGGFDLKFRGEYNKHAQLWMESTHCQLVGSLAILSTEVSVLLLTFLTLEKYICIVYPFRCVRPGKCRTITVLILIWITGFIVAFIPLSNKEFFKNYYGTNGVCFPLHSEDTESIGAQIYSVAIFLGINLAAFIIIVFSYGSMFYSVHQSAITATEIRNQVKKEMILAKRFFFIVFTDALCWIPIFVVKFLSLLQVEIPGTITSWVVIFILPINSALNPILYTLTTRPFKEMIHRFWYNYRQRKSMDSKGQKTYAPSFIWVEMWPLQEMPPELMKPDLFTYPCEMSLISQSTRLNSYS
experimental_details: cell-based or functional assay
Numbered stars: 1 amine (or outer) side, 2 acyl side, 3 side chain; on linkers, the order of the positions; unused ones are H or OH. Square brackets hold non-standard residues; d marks the D form. Side chains are listed from the residue outwards. * marks the point of attachment. TTDS = 4-[3-[2-[2-(3-aminopropoxy)ethoxy]ethoxy]propylamino]-4-oxo-butanoyl; γGlu = O=C(O)[C@H](CCC(=O)[*:2])N[*:1]; Stearoyl = CCCCCCCCCCCCCCCCCC(=O)*; Palmitoyl = CCCCCCCCCCCCCCCC(=O)*; αMeK = C[C@](N)(CCCCN)C(=O)O; Aib = CC(C)(N)C(=O)O
attribute_measured: EC50 (nM), OVCAR 5 cells (cAMP)
Answer in nM, number only, no unit symbol.

Please review the following examples before continuing.
>  <binder>
Ac-LEGREKVRAK(Ac)I[Aib]IEGK([TTDS-TTDS-TTDS-TTDS-γGlu-γGlu-γGlu-Palmitoyl])STWS[Aib]RKK(Ac)-NH2 [Relaxin peptide analogue of SEQ ID NO: 74]

>  <unit_symbol>
nM

>  <EC50 (nM), OVCAR 5 cells (cAMP)>
0.54

$$$$
>  <binder>
Ac-LEGRERVRAK(Ac)I[Aib][Aib]EGK([TTDS-TTDS-TTDS-γGlu-γGlu-γGlu-Palmitoyl])STFS[αMeK]RAK(Ac)-NH2 [Relaxin peptide analogue of SEQ ID NO: 27]

>  <unit_symbol>
nM

>  <EC50 (nM), OVCAR 5 cells (cAMP)>
1.8

$$$$

Consider the binder Ac-LEGREKVRAK(Ac)I[Aib][Aib]EGK([TTDS-TTDS-TTDS-γGlu-γGlu-γGlu-Palmitoyl])STFTRRAK(Ac)-NH2 [Relaxin peptide analogue of SEQ ID NO: 93] and give its measured EC50 (nM), OVCAR 5 cells (cAMP).
0.77

Same lookup for Ac-[Aib]EGREKVRAK(Ac)I[Aib]IEGK([TTDS-TTDS-TTDS-γGlu-γGlu-γGlu-Palmitoyl])STFS[αMeK]RAK(Ac)-NH2 [Relaxin peptide analogue of SEQ ID NO: 86] , please.
0.3

Try this binder next: Ac-LEGREKVRAK(Ac)I[Aib][Aib]EGK([TTDS-TTDS-TTDS-γGlu-γGlu-γGlu-Stearoyl])STFS[αMeK]RAK(Ac)-NH2 [Relaxin peptide analogue of SEQ ID NO: 7]
0.07

Can you handle Ac-LEGREKVRAK(Ac)I[Aib][Aib]EGK([TTDS-TTDS-TTDS-γGlu-γGlu-γGlu-Palmitoyl])STFSRRAK(Ac)-NH2 [Relaxin peptide analogue of SEQ ID NO: 87] next?
0.1

Now the binder Ac-LEGREFVRAK(Ac)I[Aib][Aib]EGK([TTDS-TTDS-TTDS-γGlu-γGlu-γGlu-Palmitoyl])STWS[Aib]RRK(Ac)-NH2 [Relaxin peptide analogue of SEQ ID NO: 39]
8.7

// repeat for LEGREKVRAKIXXEGKSTFSKRAK (Ac-L-E-G-R-E-K-V-R-A-K(Ac)-I-Aib-Aib-E-G-K(PEG2DGA-PEG2DGA-PEG2DGA-gE-gE-gE-Stea)-S-T-F-S-Mly-R-A-K(Ac)-NH2) [Relaxin peptide analogue of SEQ ID NO: 32] and report
0.1

Likewise for Ac-LEGREKVRAK(Ac)I[Aib][Aib]EGK([TTDS-TTDS-γGlu-γGlu-γGlu-γGlu-Palmitoyl])STFS[αMeK]RAK(Ac)-NH2 [Relaxin peptide analogue of SEQ ID NO: 10] ?
0.79
